Molecular target: JUNB (Homo sapiens, UniProt P17275)
Construct: made in house
Assay: Direct-binding FRET assay
Details: Kd, 23°C; N-terminal rhodamine design; mean or single
Where no end group is shown, it is not given here.
ASSAY_READOUT: pKd
One number for each entry, as −log10 of the molar value.

Input: For the record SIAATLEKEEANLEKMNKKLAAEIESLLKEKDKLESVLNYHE [JUN-d1] , what value of pKd is listed for JUNB (Homo sapiens, UniProt P17275)?
Output: 7.28
